The measured values listed here are drawn from patent US9340510B2.

Measurement record for human ACC2 (Homo sapiens (Human)); quantity recorded: IC50.
Result Type: IC50 (nM)

[
  {
    "Compound": "CC(O)C(=O)N[C@@H](C)c1ccc(CN2CC(=O)c3cc(OCC4CC4)ccc3C2)cc1 (stereo partly shown)",
    "IC50, nM": 624
  },
  {
    "Compound": "CC(=O)NC(C)c1ccc(CN2CCc3c(ccc(OCC(F)F)c3Cl)C2)cc1 (stereo not shown)",
    "IC50, nM": 218
  },
  {
    "Compound": "C[C@H](NC(=O)[C@@H]1CCC(=O)N1)c1ccc(CN2Cc3ccc(OCC4CC4)cc3C(F)C2)cc1 (stereo partly shown)",
    "IC50, nM": 153
  },
  {
    "Compound": "CC(=O)N[C@@H](C)c1ccc(CN2Cc3ccc(OC(C)C)cc3C(F)C2)cc1 (stereo partly shown)",
    "IC50, nM": 30
  }
]

a: C[C@H](NC(=O)CC#N)c1ccc(CN2Cc3ccc(OCC4CC4)cc3C(O)C2)cc1 (stereo partly shown)
b: C[C@H](NC(=O)C1CC1)c1ccc(CN2CCc3cc(OC[C@H]4CC4(F)F)ccc3C2)cc1
c: C[C@H](NC(=O)C1CC1)c1ccc(CN2Cc3ccc(OCC4CC4)cc3C(F)C2)cc1 (stereo partly shown)
Query :: # ascending order, key=IC50 API: response body holds the labels in the requested order.
Result :: b, c, a

1: C[C@H](NC(=O)CC#N)c1ccc(CN2Cc3ccc(OCC4CC4(F)F)cc3C(O)C2)cc1 (stereo partly shown)
2: C[C@H](NC(=O)CO)c1ccc(CN2Cc3ccc(OCC4CC4(F)F)cc3C(F)C2)cc1 (stereo partly shown)
Query :: Select one. Lower IC50: 1 or 2 Answer by quoting the chosen item's label.
Result :: 2

====

- Tgt: human ACC2 (Homo sapiens (Human), UniProt O00763)
- Sequence (O00763 129-2458): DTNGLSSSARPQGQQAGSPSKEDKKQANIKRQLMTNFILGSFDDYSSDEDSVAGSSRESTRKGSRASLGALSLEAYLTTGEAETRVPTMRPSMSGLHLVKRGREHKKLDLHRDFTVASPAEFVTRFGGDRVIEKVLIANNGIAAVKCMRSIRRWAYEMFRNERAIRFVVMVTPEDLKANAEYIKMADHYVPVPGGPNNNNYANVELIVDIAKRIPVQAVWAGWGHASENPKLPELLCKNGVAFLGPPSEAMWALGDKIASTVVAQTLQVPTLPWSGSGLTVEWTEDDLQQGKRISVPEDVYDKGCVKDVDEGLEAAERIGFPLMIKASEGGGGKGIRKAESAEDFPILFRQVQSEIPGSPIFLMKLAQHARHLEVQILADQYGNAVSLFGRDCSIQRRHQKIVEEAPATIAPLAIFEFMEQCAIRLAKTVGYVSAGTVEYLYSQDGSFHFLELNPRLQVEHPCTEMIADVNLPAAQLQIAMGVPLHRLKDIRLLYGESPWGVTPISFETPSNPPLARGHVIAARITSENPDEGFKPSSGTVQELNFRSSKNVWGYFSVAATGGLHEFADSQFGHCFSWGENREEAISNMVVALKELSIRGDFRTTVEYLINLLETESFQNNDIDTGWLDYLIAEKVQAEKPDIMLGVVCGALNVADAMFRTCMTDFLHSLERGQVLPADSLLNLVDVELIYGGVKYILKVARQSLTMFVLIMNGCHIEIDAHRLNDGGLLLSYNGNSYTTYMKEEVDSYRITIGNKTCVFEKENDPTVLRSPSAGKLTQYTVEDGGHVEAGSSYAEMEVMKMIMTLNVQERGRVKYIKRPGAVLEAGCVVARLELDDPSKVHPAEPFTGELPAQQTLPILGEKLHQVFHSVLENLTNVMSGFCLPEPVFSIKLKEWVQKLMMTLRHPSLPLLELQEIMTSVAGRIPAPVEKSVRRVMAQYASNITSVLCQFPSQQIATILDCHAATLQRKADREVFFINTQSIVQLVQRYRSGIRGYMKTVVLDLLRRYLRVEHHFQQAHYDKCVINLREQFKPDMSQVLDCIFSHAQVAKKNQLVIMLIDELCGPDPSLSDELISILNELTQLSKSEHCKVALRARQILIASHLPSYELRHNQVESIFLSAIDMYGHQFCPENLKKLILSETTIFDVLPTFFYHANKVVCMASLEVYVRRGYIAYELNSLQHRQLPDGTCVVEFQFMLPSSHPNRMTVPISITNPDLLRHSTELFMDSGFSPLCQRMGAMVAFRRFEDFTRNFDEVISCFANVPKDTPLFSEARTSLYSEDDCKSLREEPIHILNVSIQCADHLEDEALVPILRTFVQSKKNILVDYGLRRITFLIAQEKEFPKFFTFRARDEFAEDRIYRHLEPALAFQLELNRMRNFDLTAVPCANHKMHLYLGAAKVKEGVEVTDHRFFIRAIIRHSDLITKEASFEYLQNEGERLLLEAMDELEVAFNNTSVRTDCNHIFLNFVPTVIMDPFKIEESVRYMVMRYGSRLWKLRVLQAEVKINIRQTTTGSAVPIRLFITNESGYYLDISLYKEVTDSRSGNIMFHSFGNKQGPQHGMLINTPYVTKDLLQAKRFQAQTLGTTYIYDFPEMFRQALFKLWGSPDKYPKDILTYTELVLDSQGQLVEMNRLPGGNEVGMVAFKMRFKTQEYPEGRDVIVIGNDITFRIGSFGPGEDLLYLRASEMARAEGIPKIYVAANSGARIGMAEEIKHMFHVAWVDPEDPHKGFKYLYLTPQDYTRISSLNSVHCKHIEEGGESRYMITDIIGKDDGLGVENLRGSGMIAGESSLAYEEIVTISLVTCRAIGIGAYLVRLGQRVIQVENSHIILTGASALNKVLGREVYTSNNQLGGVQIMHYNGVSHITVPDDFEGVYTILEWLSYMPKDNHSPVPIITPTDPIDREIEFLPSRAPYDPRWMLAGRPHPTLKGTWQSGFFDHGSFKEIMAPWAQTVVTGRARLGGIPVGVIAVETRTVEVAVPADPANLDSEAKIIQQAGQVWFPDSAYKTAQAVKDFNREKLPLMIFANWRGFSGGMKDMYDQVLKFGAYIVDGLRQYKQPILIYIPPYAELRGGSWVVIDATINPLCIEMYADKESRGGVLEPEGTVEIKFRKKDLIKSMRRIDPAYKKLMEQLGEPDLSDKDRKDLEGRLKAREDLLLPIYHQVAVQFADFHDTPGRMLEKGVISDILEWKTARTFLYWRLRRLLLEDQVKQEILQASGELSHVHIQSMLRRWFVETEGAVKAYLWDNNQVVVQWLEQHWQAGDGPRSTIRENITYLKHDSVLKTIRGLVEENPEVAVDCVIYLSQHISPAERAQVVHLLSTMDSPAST
- Test: ACC2 assay: spectrophotometric 384 well assay (coupled lactate dehydrogenase/pyruvate kinase)
- Format: biochemical
- Cond: hACC2 construct lacking the 128 N-terminal amino acids, 25° C., 340 nm
- Experimental: Spectrophotometric 384 Well Assay Malonyl CoA formation by acetyl CoA carboxylases is stoichiometrically linked to the consumption of ATP. ACC2 activity is measured in a […] kinetic method measuring ADP generated during the ACC reaction using a coupled lactate dehydrogenase/pyruvate kinase reaction. For biological testing, a human ACC2 construct which lacks the 128 amino acids at the N-terminus for increased solubility (nt 385-6966 in Genbank entry AJ575592) is cloned. […]
pIC50: −log10 of the molar value.
Result Type: pIC50

[
  {
    "Molecule": "C[C@H](NC(=O)c1cnn(C)c1Cl)c1ccc(CN2CCc3cc(OCC4CC4(F)F)ccc3C2)cc1 (some centres unmarked)",
    "pIC50": 6.79
  },
  {
    "Molecule": "CC(=O)NC(C)c1ccc(CN2CCc3cc(OC(C)C)ccc3C2)cc1 (centres unmarked)",
    "pIC50": 6.96
  },
  {
    "Molecule": "CC(C#N)C(=O)N[C@@H](C)c1ccc(CN2CCc3cc(OCC4CC4(F)F)ccc3C2)cc1 (some centres unmarked)",
    "pIC50": 7.04
  },
  {
    "Molecule": "CC(C)Oc1ccc2c(c1)CCN(Cc1ccc([C@H](C)NC(=O)C3CC3)cc1)C2",
    "pIC50": 7.15
  },
  {
    "Molecule": "C[C@H](NC(=O)C1CC(F)C1)c1ccc(CN2CCc3cc(OCC4CC4(F)F)ccc3C2)cc1 (some centres unmarked)",
    "pIC50": 7.30
  }
]

1: CC(=O)N[C@@H](C)c1ccc(CN2Cc3ccc(OC(C)C)cc3C(O)C2)cc1 (some centres unmarked)
2: C[C@H](NC(=O)C1CC1)c1ccc(CN2CCc3cc(OC[C@@H]4CC4(F)F)ccc3C2)cc1
Query :: Select one. Lower pIC50: 1 or 2 Answer by quoting the chosen item's label.
Result :: 1
(1: 6.41, 2: 7.51)
